- experimental_system: MMP-9 (Homo sapiens, UniProt P14780)
- Construct: made in house; host or cells: MMP-9-transfected HT1080 cells (spent media)
- Sequence (P14780 107-707 limits assumed): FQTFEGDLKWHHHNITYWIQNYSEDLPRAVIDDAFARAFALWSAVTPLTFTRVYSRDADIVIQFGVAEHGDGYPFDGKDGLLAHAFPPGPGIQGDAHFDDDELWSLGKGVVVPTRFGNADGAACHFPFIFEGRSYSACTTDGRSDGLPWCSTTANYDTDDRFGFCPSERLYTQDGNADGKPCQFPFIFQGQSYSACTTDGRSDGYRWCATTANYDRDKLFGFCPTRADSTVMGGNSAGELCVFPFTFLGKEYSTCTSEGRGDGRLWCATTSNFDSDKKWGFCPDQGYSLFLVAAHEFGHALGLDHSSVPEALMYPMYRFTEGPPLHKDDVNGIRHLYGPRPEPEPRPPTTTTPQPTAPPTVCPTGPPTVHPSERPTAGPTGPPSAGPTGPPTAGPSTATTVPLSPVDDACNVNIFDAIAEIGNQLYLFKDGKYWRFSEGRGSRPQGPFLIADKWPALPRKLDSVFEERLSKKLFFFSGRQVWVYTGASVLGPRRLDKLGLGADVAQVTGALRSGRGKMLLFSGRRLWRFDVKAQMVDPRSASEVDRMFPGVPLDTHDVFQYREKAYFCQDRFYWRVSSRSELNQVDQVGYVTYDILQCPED
- assay_remarks: In vitro MMP inhibition, Ki determination (fluorogenic substrate II)
- Format: biochemical
- details: value outside parentheses
assay_metric: Ki (nM)

Past entries and their recorded results:
                                   compound  assay_metric  display_unit  numeric_readout
0  CCCCOc1ccc(N2CCN(S(=O)(=O)C3(C(=O)NO)CCN(C(=O)c4cccnc4)CC3)CC2)cc1 [Example 266]            Ki            nM            0.957
1  O=C(NO)C1(S(=O)(=O)N2CCC(c3ccc(-c4cccs4)cn3)CC2)CCOCC1 [Example 394]            Ki            nM             1.52

A: O=C(NO)C1(S(=O)(=O)N2CCN(c3ncc(-c4ccccn4)s3)CC2)CCOCC1 [Example 387]
B: O=C(NO)C1(S(=O)(=O)N2CCN(c3ccc(CCCC(F)(F)F)cc3F)CC2)CCOCC1 [Example 386]
C: O=C(NO)C1(S(=O)(=O)N2CCC(c3ccc(-c4ccccn4)cn3)CC2)CCOCC1 [Example 409]
Task field, ranking: reported Ki, descending order. List the labels in the requested order. A, C, B
(A: 34.6 nM, C: 13.6 nM, B: 4.9 nM)

---

compounds and their reported pKi
- experimental_system: MMP-1 (Homo sapiens)
- Construct: made in house; host or cells: MMP-1-transfected HT-1080 cells (spent media)
- Sequence (P03956 100-469): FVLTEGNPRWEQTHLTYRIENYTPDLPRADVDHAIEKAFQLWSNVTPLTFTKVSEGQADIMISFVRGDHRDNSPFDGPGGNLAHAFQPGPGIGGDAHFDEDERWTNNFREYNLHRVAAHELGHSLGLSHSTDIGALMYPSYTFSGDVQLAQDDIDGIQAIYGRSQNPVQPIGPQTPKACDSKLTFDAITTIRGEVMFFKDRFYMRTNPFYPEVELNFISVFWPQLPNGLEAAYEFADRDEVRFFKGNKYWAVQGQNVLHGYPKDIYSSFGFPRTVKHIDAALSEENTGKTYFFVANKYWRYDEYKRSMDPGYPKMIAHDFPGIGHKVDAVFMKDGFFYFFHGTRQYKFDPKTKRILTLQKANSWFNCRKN
- assay_remarks: In vitro MMP inhibition, Ki determination (fluorogenic substrate II)
- Type: biochemical
- details: value outside parentheses; read-out: MMP-1 Ki
pKi: −log10 of the molar value.

These recorded examples may help you get a feel for the data.
                                smiles_data  assay_metric  result
0  O=C(NO)C1(S(=O)(=O)N2CCC(c3ccc(CCCC(F)(F)F)cc3)CC2)CCOCC1           pKi    5.07
1  CCCCOc1ccc(N2CCN(S(=O)(=O)C3(C(=O)NO)CCN(C(=O)CC(F)(F)F)CC3)CC2)cc1           pKi  < 5.00
2  CCCCCC/C=C\C1CCN(S(=O)(=O)C2(C(=O)NO)CCOCC2)CC1           pKi  < 5.00
3  Cc1ccc(-c2cnc(N3CCN(S(=O)(=O)C4(C(=O)NO)CCOCC4)CC3)s2)cc1           pKi    5.45
4  O=C(NO)C1(S(=O)(=O)N2CCC(c3ccc(-c4ccc(F)cc4F)cn3)CC2)CCOCC1           pKi    5.17

Output pKi of "O=C(NO)C1(S(=O)(=O)N2CCC(c3ccc(OCC(F)(F)F)cc3)CC2)CCOCC1" 5.42

Item "CCCCOc1ccc(N2CCN(S(=O)(=O)C3(C(=O)NO)CCN(C)CC3)CC2)cc1" : provide pKi < 5.00

Determine its reported pKi: "O=C(NO)C1(S(=O)(=O)N2CCN(c3ccc(-c4ccc(F)cc4F)cn3)CC2)CCOCC1" 5.26

Please report pKi for the following compound: "O=C(NO)C1(S(=O)(=O)N2CCN(c3ccc(CCC(F)(F)C(F)(F)F)cc3)CC2)CCN(C2CC2)CC1" < 5.00
